Values from PubChem BioAssay AID720622

Here the recorded pIC50 is given for each entry.
- procedure.summary: T. brucei parasite growth inhibition, late-stage follow-up, counter-screen for T. brucei MetRS inhibitor project, absorbance (AID 720622)
- measurement.setup: T. brucei bloodstream form 427 growth, AlamarBlue fluorescence, 48 h; run 1
pIC50: −log10 of the molar value.

Example results:
molecule	assay.endpoint	value.reported
O=C(NNC(=O)c1ccc(-n2cncn2)c([N+](=O)[O-])c1)c1ccc(Cl)cc1	pIC50	< 5.00
O=C(NCc1nc2ccccc2[nH]1)C1=C[C@H](C2CC2)C[C@H](OCc2ccc(CO)cc2)O1	pIC50	< 5.00
COc1ccc(CNC(=O)CSc2nnc3c(n2)[nH]c2ccc(F)cc23)cc1	pIC50	< 5.00
CN(Cc1cc(Cl)cc(Cl)c1)[C@H]1C[C@H]2c3[nH]c4ccccc4c3CCN2C(=O)[C@H]1CO	pIC50	5.70

Reported pIC50, molecule O=C1CC(SCc2nc3ccccc3[nH]2)C(=O)N1c1cccc(Cl)c1 (stereo unspecified) : ____ < 5.00

Which value of pIC50 has been reported for `O=C(NCCc1nc2ccccc2[nH]1)c1ccc(Cl)c([N+](=O)[O-])c1` in the records? 5.30

---

- procedure.summary: T. brucei parasite growth inhibition, late-stage follow-up, counter-screen for T. brucei MetRS inhibitor project, absorbance (AID 720622)
- measurement.setup: T. brucei bloodstream form 427 growth, AlamarBlue fluorescence, 48 h; run 1
pIC50: −log10 of the molar value.
Here, each record is paired with measured pIC50 data.

molecule	pIC50
O=C(NCc1nc2ccccc2[nH]1)C1=C[C@@H](c2csc3ccccc23)C[C@@H](OCCCCO)O1	< 5.00
O=C(NCc1nc2ccccc2[nH]1)C1=C[C@@H](c2ccccc2)C[C@@H](OCc2ccc(CO)cc2)O1	< 5.00
CCO[C@@H]1OC(C(=O)NCc2nc3ccccc3[nH]2)=C[C@H](c2ccc(Br)cc2)[C@H]1CCCO	< 5.00
Clc1ccc(-c2nnc(SCc3nc4ccccc4[nH]3)o2)c(Cl)c1	< 5.00
CC(=O)c1ccc(N2CCN(C(=O)CCCn3c(=O)[nH]c4ccc(Br)cc4c3=O)CC2)cc1	< 5.00

What does the data say about its pIC50? Entry: `O=C(NCc1nc2ccccc2[nH]1)C1=C[C@H](c2ccc(Br)cc2)C[C@H](OCc2ccc(CO)cc2)O1` 5.01

Would you kindly share the measured pIC50 for `O=C(NCc1nc2ccccc2[nH]1)C1=C[C@@H](c2ccc(Br)cc2)C[C@@H](OCc2ccc(CO)cc2)O1` ? 5.36

What value of pIC50 has been recorded for this entry: `O=C(NCc1nc2ccccc2[nH]1)C1=C[C@@H](C2CC2)C[C@@H](OCc2ccc(CO)cc2)O1` < 5.00

---

// reported IC50 for each item listed
- procedure.summary: T. brucei parasite growth inhibition, late-stage follow-up, counter-screen for T. brucei MetRS inhibitor project, absorbance (AID 720622)
- measurement.setup: T. brucei bloodstream form 427 growth, AlamarBlue fluorescence, 48 h; run 1

Worked cases, IC50 given:
molecule	value.reported
C[C@H](O)[C@@H]1C(=O)N2CCc3c([nH]c4ccccc34)[C@@H]2C[C@@H]1N(C)Cc1ccc2c(c1)OCO2	> 10 µM
COc1ccccc1-n1c(SCC(=O)Nc2ccc(Cl)cc2)nc(O)c(Cc2ccccc2)c1=O	> 10 µM
O=C(Cn1cnc2ccccc21)Nc1cccc([N+](=O)[O-])c1	> 10 µM

Any idea what its IC50 is? The molecule is `Brc1cnc2nc(SCc3nc4ccccc4[nH]3)[nH]c2c1` > 10 µM

I am curious: what IC50 value has been reported for O=C1[C@@H]2Cc3c([nH]c4ccccc34)C(c3cccc([N+](=O)[O-])c3)N2C(=O)CN1CCCO (some centres undefined) ? > 10 µM

GET /values?readout=IC50&item= `O=C(Cn1cc(C(=O)C(=O)N2CCOCC2)c2ccccc21)Nc1cccc(C(F)(F)F)c1` 3.53 µM

Param item = O=C1CC(N(CCc2ccccc2)C(=S)Nc2ccccc2)C(=O)N1c1ccc(Br)cc1 (centres undefined) ; retrieve measured IC50. 1.95 µM

Can you look up the measured IC50 of `O=C(NCc1nc2ccccc2[nH]1)C1=C[C@H](c2ccc(Br)cc2)C[C@H](OCCCCO)O1` for me? > 10 µM

Would you mind telling me what IC50 value was observed for `COc1cccc(NC(=O)CSc2nnc3c(n2)[nH]c2ccc(C)cc23)c1` ? > 10 µM

# IC50 lookup, item `COc1ccc2[nH]c3nc(SCC(=O)Nc4ccc5c(c4)OCO5)nnc3c2c1` > 10 µM

Query: IC50; subject: `O=C(CN1CCSC1=NCc1ccccc1)c1ccc(Cl)c(Cl)c1` > 10 µM

I have this molecule here, `COc1ccccc1NS(=O)(=O)c1cccc(NC(=O)Nc2ccccc2)c1` , and I need its recorded IC50. 6.06 µM

# get_value(readout='IC50', item= `O=C(NCc1nc2ccccc2[nH]1)C1=C[C@H](c2csc3ccccc23)C[C@H](OCCCCO)O1` ) 3.96 µM

Which IC50 is reported for this molecule? `O=C(C[C@H]1C(=O)N(Cc2ccccc2)C[C@@H]1c1ccc(Br)cc1)Nc1ccc(Br)cc1` 4.03 µM

Could you tell me which IC50 is on file for CC(C)OCCCN1CC(=O)N2C(c3cccc([N+](=O)[O-])c3)c3[nH]c4ccccc4c3C[C@H]2C1=O (some centres undefined) ? > 10 µM

What value of IC50 has been reported for the following molecule? `O=C(NCc1nc2ccccc2[nH]1)C1=C[C@H](c2ccccc2)C[C@H](OCc2ccc(CO)cc2)O1` > 10 µM

# lookup: IC50 of `O=C(NNC(=O)c1cc(-c2ccc(Cl)c(Cl)c2)nc2ccccc12)Nc1ccccc1` 5.24 µM

For the molecule `O=C(CC=NOCc1ccc([N+](=O)[O-])cc1)Nc1ccc(Cl)cc1` , what IC50 is on record? > 10 µM

Which IC50 value belongs to `CC(=O)c1c[nH]c(C(=O)NCc2cccc(C(F)(F)F)c2)c1` ? > 10 µM
